Experiment: Method for examining solubility (JP1, JP2)
Type: physicochemical
Details: pH 1.2, simulated gastric fluid, thermodynamic from solid; Solution 1 (JP1) according to the Japanese Pharmacopoeia, room temperature
Assay metric: solubility at 30 min

Enquiry: Sample `Cn1cc(-c2nc(N3CCOCC3)c3nc(C(=O)N4CCC(N5CCOCC5)CC4)[nH]c3n2)cn1` — what was its solubility at 30 min?
Return: ≥ 1200 µg/mL

----------
System: mitogen-induced IFN-γ release in mouse splenocytes
Test: Phytohaemagglutinin (PHA) inducible interferon (IFN)-gamma release in mouse splenocytes
Format: cell-based
Conditions: Splenocyte; C57BL/6 mouse splenocytes, PHA 10 μg/ml, 48 hours, ELISA; read-out: activity (IC50), inhibition of IFN-γ release
Assay metric: IC50

Enquiry: Sample `Cn1cc(-c2nc(N3CCOCC3)c3nc(C(=O)N4CCC(N5CCOCC5)CC4)[nH]c3n2)cn1` — what was its IC50?
Return: 6 nM

----------
Assay: Oral bioavailability (BA) in mice
Type: in vivo
Conditions: plasma; male Swiss mouse, 10.0 mg/kg oral vs 3.0 mg/kg intravenous
Assay metric: bioavailability (%)
Unit % implied. Number only.

Enquiry: Sample Cn1cc(-c2nc(N3CCOCC3)c3nc(C(=O)N4CCC(N5CCOCC5)CC4)[nH]c3n2)cn1 [compound (I)] — what was its bioavailability?
Return: 100
